# Method notes: Half-life of oxidation, sodium periodate accelerated oxidation
# Assay type: physicochemical
# Study conditions: 15 molar excess of sodium periodate, pH 11, 22° C.; read-out: half-life for oxidation (converted)
Metric: half-life

CN(C)c1cc(C#N)c(O)c2c1C[C@H]1C[C@H]3[C@H](N(C)C)C(O)=C(C(N)=O)C(=O)[C@@]3(O)C(O)=C1C2=O = 8.25 min

---

# Method notes: in vitro
# Assay type: cell-based
# Study conditions: African green monkey
Metric: IC50 at 24 h

CN(C)[C@@H]1C(O)=C(C(N)=O)C(=O)[C@@]2(O)C(O)=C3C(=O)c4c(O)ccc(CN5CCCCO5)c4C[C@H]3C[C@@H]12 = 35 to 75 µg/mL
CCONCc1ccc(O)c2c1C[C@H]1C[C@H]3[C@H](N(C)C)C(O)=C(C(N)=O)C(=O)[C@@]3(O)C(O)=C1C2=O = > 75 µg/mL
CN(C)[C@@H]1C(O)=C(C(N)=O)C(=O)[C@@]2(O)C(O)=C3C(=O)c4c(O)ccc(-c5ncco5)c4C[C@H]3C[C@@H]12 = < 35 µg/mL
CN(C)[C@@H]1C(O)=C(C(N)=O)C(=O)[C@@]2(O)C(O)=C3C(=O)c4c(O)ccc(-c5ccc[nH]5)c4C[C@H]3C[C@@H]12 = < 35 µg/mL
CN(C)c1cc(C#N)c(O)c2c1C[C@H]1C[C@H]3[C@H](N(C)C)C(O)=C(C(N)=O)C(=O)[C@@]3(O)C(O)=C1C2=O = < 35 µg/mL
CC(=O)c1cccc2c1C[C@H]1C[C@H]3[C@@H](N(C)C)C(O)=C(C(N)=O)C(=O)[C@@]3(O)C(O)=C1C2=O = > 75 µg/mL
CCO/N=C(/C)c1ccc(O)c2c1C[C@H]1C[C@H]3[C@H](N(C)C)C(O)=C(C(N)=O)C(=O)[C@@]3(O)C(O)=C1C2=O = < 35 µg/mL
CON(C)Cc1ccc2c(c1O)C(=O)C1=C(O)[C@]3(O)C(=O)C(C(N)=O)=C(O)[C@@H](N(C)C)[C@@H]3C[C@@H]1C2 = 35 to 75 µg/mL
CO/N=C/c1cc(N(C)C)c2c(c1O)C(=O)C1=C(O)[C@]3(O)C(=O)C(C(N)=O)=C(O)[C@@H](N(C)C)[C@@H]3C[C@@H]1C2 = < 35 µg/mL
CC(=O)c1cccc2c1C[C@H]1C[C@H]3[C@H](N(C)C)C(O)=C(C(N)=O)C(=O)[C@@]3(O)C(O)=C1C2=O = > 75 µg/mL
C/C(=N\OC(C)(C)C)c1cc(N)c(O)c2c1C[C@H]1C[C@H]3[C@H](N(C)C)C(O)=C(C(N)=O)C(=O)[C@@]3(O)C(O)=C1C2=O = < 35 µg/mL
CN(C)[C@@H]1C(O)=C(C(N)=O)C(=O)[C@@]2(O)C(O)=C3C(=O)c4c(O)ccc(CNOCC(F)F)c4C[C@H]3C[C@@H]12 = < 35 µg/mL

---

# Tested on: E. coli ATCC 25922
Listed compounds paired with reported MIC
Metric: MIC

CN(C)CC/C(=N\OC(C)(C)C)c1ccc(O)c2c1C[C@H]1C[C@H]3[C@H](N(C)C)C(O)=C(C(N)=O)C(=O)[C@@]3(O)C(O)=C1C2=O = < 4 µg/mL
CCO/N=C(\C)c1cc(N)c(O)c2c1C[C@H]1C[C@H]3[C@H](N(C)C)C(O)=C(C(N)=O)C(=O)[C@@]3(O)C(O)=C1C2=O = < 4 µg/mL
CN(C)c1cccc2c1C[C@H]1C[C@H]3[C@H](N(C)C)C(O)=C(C(N)=O)C(=O)[C@@]3(O)C(O)=C1C2=O = > 8 µg/mL
CCONCc1ccc(O)c2c1C[C@H]1C[C@H]3[C@H](N(C)C)C(O)=C(C(N)=O)C(=O)[C@@]3(O)C(O)=C1C2=O = 4 to 8 µg/mL
CCNN(CC)Cc1ccc(O)c2c1C[C@H]1C[C@H]3[C@H](N(C)C)C(O)=C(C(N)=O)C(=O)[C@@]3(O)C(O)=C1C2=O = 4 to 8 µg/mL
C[C@H]1c2cccc(O)c2C(=O)C2=C(O)[C@]3(O)C(=O)C(C(N)=O)=C(O)[C@@H](N(C)C)[C@@H]3[C@@H](O)[C@@H]21 [Doxycycline, reference compound] = < 4 µg/mL
C=CCONCc1ccc(O)c2c1C[C@H]1C[C@H]3[C@H](N(C)C)C(O)=C(C(N)=O)C(=O)[C@@]3(O)C(O)=C1C2=O = 4 to 8 µg/mL
CN(C)[C@H]1C(O)=C(C(N)=O)C(=O)[C@@]2(O)C(O)=C3C(=O)c4c(O)ccc(CNOCCF)c4C[C@H]3C[C@@H]12 = > 8 µg/mL
C/C(=N\OC(C)(C)C)c1cc(N)c(O)c2c1C[C@H]1C[C@H]3[C@@H](N(C)C)C(O)=C(C(N)=O)C(=O)[C@@]3(O)C(O)=C1C2=O = > 8 µg/mL
CN(C)[C@@H]1C(O)=C(C(N)=O)C(=O)[C@@]2(O)C(O)=C3C(=O)c4c(O)ccc(-c5ncco5)c4C[C@H]3C[C@@H]12 = < 4 µg/mL
CCO/N=C(\C)CN(C)Cc1ccc(O)c2c1C[C@H]1C[C@H]3[C@H](N(C)C)C(O)=C(C(N)=O)C(=O)[C@@]3(O)C(O)=C1C2=O = 4 to 8 µg/mL
CN(C)c1ccc(O)c2c1C[C@H]1C[C@H]3[C@H](N(C)C)C(O)=C(C(N)=O)C(=O)[C@@]3(O)C(O)=C1C2=O [Minocycline, reference compound] = < 4 µg/mL
C/C(=N\OCC(F)(F)F)c1cc(N)c(O)c2c1C[C@H]1C[C@H]3[C@H](N(C)C)C(O)=C(C(N)=O)C(=O)[C@@]3(O)C(O)=C1C2=O = 4 to 8 µg/mL
CON(C)Cc1ccc(O)c2c1C[C@H]1C[C@H]3[C@@H](N(C)C)C(O)=C(C(N)=O)C(=O)[C@@]3(O)C(O)=C1C2=O = > 8 µg/mL
CN(C)[C@H]1C(O)=C(C(N)=O)C(=O)[C@@]2(O)C(O)=C3C(=O)c4c(O)ccc(CNOCC(F)F)c4C[C@H]3C[C@@H]12 = > 8 µg/mL
CN(C)[C@@H]1C(O)=C(C(N)=O)C(=O)[C@@]2(O)C(O)=C3C(=O)c4c(O)ccc(CN5CCCO5)c4C[C@H]3C[C@@H]12 = < 4 µg/mL
CNc1c(-c2ccc(O)c3c2C[C@H]2C[C@H]4[C@H](N(C)C)C(O)=C(C(N)=O)C(=O)[C@@]4(O)C(O)=C2C3=O)c(=O)c1=O = 4 to 8 µg/mL
CN(C)c1cc(C#N)c(O)c2c1C[C@H]1C[C@H]3[C@H](N(C)C)C(O)=C(C(N)=O)C(=O)[C@@]3(O)C(O)=C1C2=O = > 8 µg/mL

---

# Method notes: in vitro
# Format: cell-based
# Study conditions: African green monkey
Metric: IC50 at 24 h

CN(C)[C@H]1C(O)=C(C(N)=O)C(=O)[C@@]2(O)C(O)=C3C(=O)c4cccc(-c5ncccn5)c4C[C@H]3C[C@@H]12 = > 75 mg/L
CON(C)Cc1ccc(O)c2c1C[C@H]1C[C@H]3[C@H](N(C)C)C(O)=C(C(N)=O)C(=O)[C@@]3(O)C(O)=C1C2=O = > 75 mg/L
CN(C)c1cccc2c1C[C@H]1C[C@H]3[C@H](N(C)C)C(O)=C(C(N)=O)C(=O)[C@@]3(O)C(O)=C1C2=O = > 75 mg/L

---

Listed compounds paired with reported IC50 at 24 h
# Method notes: in vitro
# Assay type: cell-based
# Study conditions: African green monkey
# Method: Mammalian cell cytotoxicity was assessed to evaluate potential in vivo risks associated with the tetracycline compounds of the invention. A soluble, non-toxic redox dye (“Resazurin”; Alamar Blue) was used to assess a tetracycline compound's effect on cellular metabolism. […] Fluorescence measurements were taken (excitation 535 nm, emission 590 nm) and toxic effects in treated versus control cells were compared based on the degree of fluorescence in each well.
Metric: IC50 at 24 h

CN(C)[C@@H]1C(O)=C(C(N)=O)C(=O)[C@@]2(O)C(O)=C3C(=O)c4cccc(-c5ncccn5)c4C[C@H]3C[C@@H]12 = > 75 µg/mL
CN(C)[C@@H]1C(O)=C(C(N)=O)C(=O)[C@@]2(O)C(O)=C3C(=O)c4c(O)ccc(/C=N/NC(C)(C)C)c4C[C@H]3C[C@@H]12 = < 35 µg/mL
CN(C)[C@@H]1C(O)=C(C(N)=O)C(=O)[C@@]2(O)C(O)=C3C(=O)c4c(O)ccc(CNOCCF)c4C[C@H]3C[C@@H]12 = > 75 µg/mL
CN(C)[C@@H]1C(O)=C(C(N)=O)C(=O)[C@@]2(O)C(O)=C3C(=O)c4c(O)ccc(CNOC(C)(C)C)c4C[C@H]3C[C@@H]12 = < 35 µg/mL
CCO/N=C(\C)CN(C)Cc1ccc(O)c2c1C[C@H]1C[C@H]3[C@H](N(C)C)C(O)=C(C(N)=O)C(=O)[C@@]3(O)C(O)=C1C2=O = < 35 µg/mL
C=CCN(Cc1ccc(O)c2c1C[C@H]1C[C@H]3[C@H](N(C)C)C(O)=C(C(N)=O)C(=O)[C@@]3(O)C(O)=C1C2=O)C(=O)OC = < 35 µg/mL
